# assay_protocol: APR_HepG2_P-H2AX_24hr: Apredica 24-hour HepG2 Assay for H2AX Phosphorylation (AID 2282920)
# measurement_conditions: high-content imaging, actives raise or lower the signal
Calls of active or inactive are those of the source. The calls were made as follows: active = hit-call score of the fitted dose curve at least 0.9, where 1 is the maximum; inactive = score below 0.9.
Thanks in advance; please answer with one of these: t for active, f for inactive

# count of solved cases: 5
COCCOCCO : f
CCCCN(CCCC)N=O : f
O=P1(N(CCCl)CCCl)NCCCO1 (stereo unspecified) : f
CCC1(c2ccccc2)C(=O)N=C(O)NC1=O (stereo unspecified) : f
CC(Cc1ccc(OCC(=O)O)cc1)NCC(O)c1csc(C(F)(F)F)n1 (stereo unspecified) : f

GET /call?item= CCC(C)(C)c1ccc(O)cc1 returns the recorded outcome of this test. f

Hi, do you know how CCN(CC)c1ccccc1 came out in this test? f
